IC50 values, listed per item
Biological target: OC43 Mpro (Human coronavirus OC43)
Sequence (P0C6X6 3247-3549): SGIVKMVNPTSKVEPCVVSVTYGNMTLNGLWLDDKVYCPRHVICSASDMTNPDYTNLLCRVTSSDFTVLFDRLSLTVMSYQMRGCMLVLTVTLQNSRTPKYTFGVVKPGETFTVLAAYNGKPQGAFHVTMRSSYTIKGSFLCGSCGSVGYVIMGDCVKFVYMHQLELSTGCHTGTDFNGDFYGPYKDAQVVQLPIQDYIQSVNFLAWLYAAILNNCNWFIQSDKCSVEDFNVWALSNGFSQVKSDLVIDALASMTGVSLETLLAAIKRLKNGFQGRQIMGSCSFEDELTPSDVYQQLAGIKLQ
Test: OC43 Mpro enzymatic assay
Assay type: biochemical, HCoV OC43
Details: Table 3

CC(C)(C)[C@H](NC(=O)C1(CF)CC1(F)F)C(=O)N1C[C@H]2[C@@H]([C@H]1C(=O)N[C@H](C#N)C[C@@H]1CC3(CC3)NC1=O)C2(C)C (single isomer, unassigned) [292 Isomer 1]; < 2000 nM
CC(C)(C)[C@H](NC(=O)c1cnccn1)C(=O)N1C[C@H]2[C@@H]([C@H]1C(=O)N[C@H](C#N)C[C@@H]1CCNC1=O)C2(C)C (single isomer, unassigned) [101 Isomer 2]; < 2000 nM
CC(C)(C)[C@H](NC(=O)c1cnccn1)C(=O)N1C[C@H]2[C@@H]([C@H]1C(=O)N[C@H](C#N)C[C@@H]1CC3(CC3)NC1=O)C2(C)C [Compound 129]; < 2000 nM

From here, focus on the item given below.
[ask] Consider the compound shown here: C[C@@H](OC1CCC1)[C@H](NC(=O)C(F)(F)F)C(=O)N1C[C@H]2[C@@H]([C@H]1C(=O)N[C@H](C#N)C[C@@H]1CC(C)(C)NC1=O)C2(C)C [Compound 307] What is its recorded IC50?
[reply] < 2000 nM

----------
Biological target: SARS-COV2 Mpro (Severe acute respiratory syndrome coronavirus 2, UniProt P0DTD1)
Assay: COVID-19 (nCoV-2019, SARS-CoV2) Mpro enzymatic assay
Type: biochemical
EXPERIMENTAL ENDPOINT: IC50

Below, 3 compounds whose answers are already recorded.
CC(C)(C)[C@H](NC(=O)c1cnccn1)C(=O)N1C[C@H]2[C@@H]([C@H]1C(=O)N[C@H](C#N)C[C@@H]1CCNC1=O)C2(C)C (single isomer, unassigned) [101 Isomer 1]; < 2000 nM
CC(C)(C)C(=O)N[C@H](C(=O)N1C[C@H]2[C@@H]([C@H]1C(=O)N[C@H](C#N)C[C@@H]1CC3(CC3)NC1=O)C2(C)C)C(C)(C)C; < 2000 nM
CC(C)(C)[C@H](NC(=O)OC1CCOC1)C(=O)N1C[C@H]2[C@@H]([C@H]1C(=O)N[C@H](C#N)C[C@@H]1CC3(CC3)NC1=O)C2(C)C (some centres unmarked); < 2000 nM

[ask] Consider the compound shown here: `CC(C)(C)[C@H](NC(=O)C1(C(F)(F)F)CC1)C(=O)N1C[C@H]2[C@@H]([C@H]1C(=O)N[C@H](C#N)C[C@@H]1CC3(CC3)NC1=O)C2(C)C` What is its recorded IC50?
[reply] < 2000 nM

[ask] Lookup `CC(C)(C)[C@H](NC(=O)c1cnccn1)C(=O)N1C[C@H]2[C@@H]([C@H]1C(=O)N[C@H](C#N)C[C@@H]1CC3(CC3)NC1=O)C2(C)C`
[reply] < 2000 nM

[ask] Lookup `N#C[C@H](C[C@@H]1CCNC1=O)NC(=O)[C@H](CC1CC1)NC(=O)[C@H](Cc1cccc2ccccc12)NC(=O)c1cnccn1`
[reply] 2000 to 10000 nM

[ask] Lookup `Cc1cc(C(=O)N[C@@H](Cc2cccc3ccccc23)C(=O)N[C@@H](CC2CC2)C(=O)N[C@H](C#N)C[C@@H]2CC(C)(C)NC2=O)no1`
[reply] 2000 to 10000 nM

[ask] Lookup `N#C[C@H](C[C@@H]1CCCNC1=O)NC(=O)[C@H](CC1CC1)NC(=O)[C@H](Cc1ccc(F)cc1)NC(=O)OCc1ccccc1`
[reply] 10000 to 30000 nM

[ask] Lookup `N#C[C@H](C[C@@H]1CCCNC1=O)NC(=O)[C@H](CC1CC1)NC(=O)[C@H](Cc1cccc2ccccc12)NC(=O)c1cnccn1`
[reply] 2000 to 10000 nM

[ask] Lookup N#C[C@H](C[C@@H]1CCNC1=O)NC(=O)C(CC1CCC(F)(F)CC1)NC(=O)[C@H](Cc1cccc2ccccc12)NC(=O)OCc1ccccc1 (some centres unmarked)
[reply] < 2000 nM

[ask] Lookup `Cc1cc(C(=O)N[C@@H](Cc2ccc(F)cc2)C(=O)N[C@@H](CC(C)C)C(=O)N[C@H](C#N)C[C@@H]2CCCNC2=O)no1`
[reply] < 2000 nM

Origin of values: patent US20240277795A1
